Test: Stability of cannabinoid entourage and Vitamin E components of the powder concentrate by LCMSMS
Assay type: physicochemical
Conditions: powder stored at 21-25° C.; 10 days
result.type: Stability of Plant-Derived Cannabinoid Compounds in Powder Concentrate (mg/g powder)

{"compound": "CCCCCc1cc(O)c2c(c1)OC1(C)CCC3C1C2C3(C)C (stereo not drawn)", "scale.unit": "mg/g powder", "assay.value": 0.050}
{"compound": "CCCCCc1cc(O)c2c(c1)OC(C)(C)c1ccc(C)cc1-2", "scale.unit": "mg/g powder", "assay.value": 0.499}
{"compound": "CCCCCc1cc(O)c(C/C=C(\\C)CCC=C(C)C)c(O)c1", "scale.unit": "mg/g powder", "assay.value": 1.08}
